Data credit: ChEMBL document CHEMBL1143895

- Test system: R3230AC
- EXPERIMENTAL PROTOCOL: Drug uptake in rat R3230AC assessed as intracellular accumulation per cell at 10 uM after 24 hrs
- Format: ADME, cell-based
ENDPOINT NAME: Drug uptake (fmol)

# annotated cases, reported Drug uptake shown
CC(C)(C)c1ccc(-c2c3nc(c(-c4ccc(OCC(=O)O)cc4)c4ccc(s4)c(-c4ccccc4)c4nc(c(-c5ccccc5)c5ccc2s5)C=C4)C=C3)cc1; 0.46
O=C(O)COc1ccc(-c2c3nc(c(-c4ccccc4)c4ccc(s4)c(-c4ccccc4)c4nc(c(-c5ccc(OCC(=O)O)cc5)c5ccc2s5)C=C4)C=C3)cc1; 0.59

I: O=C(O)COc1ccc(-c2c3nc(c(-c4ccc(F)cc4)c4ccc(s4)c(-c4ccc(F)cc4)c4nc(c(-c5ccc(F)cc5)c5ccc2s5)C=C4)C=C3)cc1
II: O=C(O)COc1c(OCC(=O)O)c2cc3nc(c(-c4ccccc4)c4ccc([nH]4)c(-c4ccccc4)c4nc(cc1s2)C=C4)C=C3
III: O[C@@H]1c2nc(c(-c3ccccc3)c3ccc(s3)c(-c3ccccc3)c3nc(c(-c4ccccc4)c4ccc(s4)c2-c2ccccc2)C=C3)[C@@H]1O
Please give the order of these molecules when sorted by Drug uptake, largest value leading. Please, when replying, give the labels in the order that was requested.
III, I, II
(III: 4.5 fmol, I: 0.33 fmol, II: 0.16 fmol)

---

- EXPERIMENTAL PROTOCOL: Lipophilicity, log D at pH 7.4
- Type: physicochemical
- TEST CONDITIONS: buffer
ENDPOINT NAME: logD

O=C(O)COc1ccc(-c2c3nc(c(-c4ccccc4)c4ccc(s4)c(-c4ccccc4)c4nc(c(-c5ccccc5)c5ccc2s5)C=C4)C=C3)cc1; 1.6
O=C(O)COc1c(OCC(=O)O)c2cc3nc(c(-c4ccccc4)c4ccc([nH]4)c(-c4ccccc4)c4nc(cc1s2)C=C4)C=C3; 0.8

1: O=C(O)COc1ccc(-c2c3nc(c(-c4ccc(F)cc4)c4ccc(s4)c(-c4ccc(F)cc4)c4nc(c(-c5ccc(F)cc5)c5ccc2s5)C=C4)C=C3)cc1
2: O=C(O)COc1ccc(-c2c3nc(c(-c4ccccc4)c4ccc(s4)c(-c4ccccc4)c4nc(c(-c5ccc(OCC(=O)O)cc5)c5ccc2s5)C=C4)C=C3)cc1
3: O=S(=O)([O-])c1ccc(-c2c3nc(c(-c4ccc(F)cc4)c4ccc(s4)c(-c4ccc(F)cc4)c4nc(c(-c5ccc(F)cc5)c5ccc2s5)C=C4)C=C3)cc1.[Na+]
4: O=C(O)COc1ccc(-c2c3nc(c(-c4ccccc4)c4ccc(s4)c(-c4ccccc4)c4nc(c(-c5ccc(OCC(=O)O)cc5)c5ccc2s5)[C@H](O)[C@@H]4O)C=C3)cc1
Please give the order of these compounds when sorted by logD, largest value leading. Please, when replying, give the labels in the order that was requested.
1, 3, 2, 4
(1: 1.8, 3: 0.8, 2: 0.1, 4: -0.5)

---

- Tested on: R3230AC
- EXPERIMENTAL PROTOCOL: Drug uptake in rat R3230AC assessed as intracellular accumulation per cell at 10 uM after 24 hrs
- Assay type: ADME, cell-based
ENDPOINT NAME: Drug uptake (fmol)

A: O=C(O)COc1ccc(-c2c3nc(c(-c4ccccc4)c4ccc(s4)c(-c4ccccc4)c4nc(c(-c5ccc(OCC(=O)O)cc5)c5ccc2s5)[C@H](O)[C@@H]4O)C=C3)cc1
B: O=C(O)COc1ccc(-c2c3nc(c(-c4ccccc4)c4ccc(s4)c(-c4ccccc4)c4nc(c(-c5ccccc5)c5ccc2s5)C=C4)C=C3)cc1
Of the two listed items, which has the higher Drug uptake? First: A Second: B # answer = label of selected item
B
(B: 0.31 fmol, A: 0.11 fmol)
